- studyTarget: Human recombinant monoamine oxidase MAO-A (Homo sapiens, UniProt P21397)
- Construct: purchased Sigma Aldrich
- Sequence (P21397 whole entry): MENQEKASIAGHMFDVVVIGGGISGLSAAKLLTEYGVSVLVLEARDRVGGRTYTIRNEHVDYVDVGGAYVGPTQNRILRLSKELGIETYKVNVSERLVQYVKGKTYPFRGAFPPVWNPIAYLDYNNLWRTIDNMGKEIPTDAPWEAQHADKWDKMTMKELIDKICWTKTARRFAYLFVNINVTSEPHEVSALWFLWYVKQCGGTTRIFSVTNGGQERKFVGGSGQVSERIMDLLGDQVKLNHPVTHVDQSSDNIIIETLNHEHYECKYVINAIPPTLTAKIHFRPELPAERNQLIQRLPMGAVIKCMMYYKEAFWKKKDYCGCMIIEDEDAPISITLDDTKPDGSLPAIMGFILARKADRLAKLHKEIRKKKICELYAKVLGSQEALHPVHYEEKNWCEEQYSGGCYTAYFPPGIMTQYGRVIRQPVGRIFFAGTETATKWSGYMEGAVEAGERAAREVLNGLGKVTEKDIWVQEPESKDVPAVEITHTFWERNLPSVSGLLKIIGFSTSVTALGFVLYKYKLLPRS
- testDetails: MAO-A inhibition assay (kynuramine fluorescence)
- Format: biochemical
pIC50: −log10 of the molar value.
quantityName: pIC50

molecule	observedMeasurement
CN1CCN(C(=O)CNC2CC2c2ccc(OCc3ccccc3)cc2)CC1 (stereo not shown) [Compound Selective-1]	< 6.00

Ref: patent US20160081947A1
